Assay: chemical genetic growth profiling, strain panel (AID 1159580);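 also: tested at 20 µM; growth read once vehicle control cultures reached saturation at 30 °C; 1 = growth at the plate median or of vehicle wells; lower values mean less growth of the strain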
Conditions: S. cerevisiae deletion strains, growth OD, locus YDR101C, strain arx1, active compounds read low
Screen size: about 5,500 compounds; about 2,000 (36%) were called active. Inconclusive results (about 18%) are left out. The list shows a part of the results.
Here the recorded normalized growth is given for each entry.

Before answering, review these 5 worked examples.
{"columns": ["COMPOUND", "RESULT"],
 "data": [
  ["CC(=O)Oc1c(-c2ccccc2)oc2c(CC=C(C)C)c3c(c(OC(C)=O)c2c1=O)C=CC(C)(C)O3", "1.09 [resistant] (active)"],
  ["O=C1CCc2cc(OCCCCc3nnnn3C3CCCCC3)ccc2N1", "0.977 (inactive)"],
  ["CC(C)(Oc1ccc(Cl)cc1)C(=O)O", "0.979 (inactive)"],
  ["CC1NC(=O)NC1=O (stereo unspecified)", "1 (inactive)"],
  ["COc1cccc2c1cc([N+](=O)[O-])c1c(C(=O)O)cc3c(c12)OCO3", "1.03 (inactive)"]
]}

Entry Nc1ccc(C(=O)Oc2ccccc2)c(O)c1 ; normalized growth = 0.864 (active)

Entry ClC(Cl)=C(c1ccc(Cl)cc1)c1ccc(Cl)cc1 ; normalized growth = 0.963 (inactive)

----------
Experiment: chemical genetic growth profiling, strain panel (AID 1159580);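 also: tested at 20 µM; growth read once vehicle control cultures reached saturation at 30 °C; 1 = growth at the plate median or of vehicle wells; lower values mean less growth of the strain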
Settings: S. cerevisiae deletion strains, growth OD, locus YLR384C, strain iki3, active compounds read low
About 2,000 (36%) of roughly 5,500 compounds were called active. Not shown: some 18% with an inconclusive outcome. This is one part of the list.
So basically, if normalized growth comes in under 1 it's Criterion met, and if it's 1 or more it's Criterion not met.

{"columns": ["COMPOUND", "ASSIGNED_CLASS"],
 "data": [
  ["CC(C(=O)O)[C@H]1CCC2C3CC=C4C[C@@H](O)CC[C@]4(C)C3CC[C@@]21C (stereo partly specified)", "Criterion not met"],
  ["COC(=O)C1=C(C)NC(C)=C(C(=O)OCC(C)C)C1c1ccccc1[N+](=O)[O-] (stereo unspecified)", "Criterion met"]
]}

In the following, a different compound is considered.
stdin: For CC(=O)[C@H]1CCC2C3CC=C4C[C@@H](OC(=O)CCC(=O)O)CC[C@]4(C)C3CC[C@@]21C (stereo partly specified) , is the recorded normalized growth below the cut-off of 1?
stdout: Criterion met

----------
Assay: chemical genetic growth profiling, strain panel (AID 1159580);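 also: tested at 20 µM; growth read once vehicle control cultures reached saturation at 30 °C; 1 = growth at the plate median or of vehicle wells; lower values mean less growth of the strain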
Conditions: S. cerevisiae deletion strains, growth OD, locus YPR163C, strain tif3
The campaign covered roughly 5,500 compounds. About 2,000 (36%) were called active. Inconclusive results (about 18%) are left out. Cut-off read from the data, not from the text of the source: active = normalized growth mostly below about 0.91 (no sharp cut-off); inconclusive = no clear call, values can overlap the other calls; inactive = mostly above about 0.92. The list shows a part of the results.
Just give me one of these, please: active, inactive

{"columns": ["MOLECULE", "ASSIGNED_CLASS"],
 "data": [
  ["O=c1c(-c2ccc(O)cc2)coc2cc(O)cc(O)c12", "inactive"]
]}

stdin: Assay outcome for NCC(=O)CCC(=O)O : what was it?
stdout: inactive

stdin: Assay outcome for C#CCOS(=O)OC1CCCCC1Oc1ccc(C(C)(C)C)cc1 (configuration not stated) : what was it?
stdout: inactive

stdin: Assay outcome for O=c1c(-c2ccccc2)coc2cc(O)cc(O)c12 : what was it?
stdout: active

stdin: Assay outcome for COc1c(O)cc2c(-c3ccccc3)cc(=O)oc2c1OC : what was it?
stdout: inactive

stdin: Assay outcome for ClC(Cl)=C(c1ccc(Cl)cc1)c1ccc(Cl)cc1 : what was it?
stdout: inactive

stdin: Assay outcome for CC(C)[C@]12O[C@H]1[C@@H]1O[C@@]13[C@@]1(C)CCC4=C(COC4=O)[C@@H]1C[C@@H]1O[C@@]13C2=O : what was it?
stdout: inactive

stdin: Assay outcome for CC(=O)Oc1cc(OC(C)=O)c2c(=O)c(-c3ccccc3)coc2c1 : what was it?
stdout: inactive

stdin: Assay outcome for NS(=O)(=O)c1cc2c(cc1C(F)(F)F)NCNS2(=O)=O : what was it?
stdout: inactive

stdin: Assay outcome for CC1=C2C(=CO[C@H](C)[C@H]2C)C(=O)C(C(=O)O)=C1O : what was it?
stdout: inactive

stdin: Assay outcome for CC(=O)Oc1c(-c2ccccc2)oc2c(CC=C(C)C)c3c(c(OC(C)=O)c2c1=O)C=CC(C)(C)O3 : what was it?
stdout: active

stdin: Assay outcome for COc1cc(O)c2c(=O)c(-c3ccc(O)cc3)coc2c1 : what was it?
stdout: inactive
